target: CYP1A2 (Homo sapiens, UniProt P05177); construct: pooled HLMs (0.25 mg/mL); tissue XenoTech H2630; host or cells: pooled human liver microsomes, mixed gender; assay: CYP1A2 inhibition in HLMs (phenacetin, cocktail, IC50 and IC50 shift); type: in vitro ADME; details: IC50 RI, CYP1A2, HLMs, reversible inhibition, no 30 min NADPH pre-incubation
Sequence (P05177 whole entry): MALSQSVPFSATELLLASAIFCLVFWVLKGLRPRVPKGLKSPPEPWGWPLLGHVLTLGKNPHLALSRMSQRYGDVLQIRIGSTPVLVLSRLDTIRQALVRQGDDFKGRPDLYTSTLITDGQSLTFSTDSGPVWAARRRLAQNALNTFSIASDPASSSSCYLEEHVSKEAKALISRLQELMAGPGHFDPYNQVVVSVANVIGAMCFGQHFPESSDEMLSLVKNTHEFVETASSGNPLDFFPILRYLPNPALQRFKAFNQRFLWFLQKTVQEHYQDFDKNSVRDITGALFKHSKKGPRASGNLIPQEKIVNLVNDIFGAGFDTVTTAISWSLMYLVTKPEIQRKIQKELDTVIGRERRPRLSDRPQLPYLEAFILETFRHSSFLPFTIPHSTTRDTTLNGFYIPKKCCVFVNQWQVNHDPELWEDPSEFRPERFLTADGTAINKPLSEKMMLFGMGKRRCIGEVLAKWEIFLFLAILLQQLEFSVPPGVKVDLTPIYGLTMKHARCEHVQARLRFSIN

# smiles str, display unit, IC50
measured = [
    ("COc1cc2c(c(OC)c1OC)-c1c(cc(OC)c(OC)c1OC)C[C@](C)(O)[C@@H](C)C2", "µM", 4),
]

====

molecular target: UniProt P10635; assay: CYP2D6 inhibition in HLMs (dextromethorphan); details: IC50 RI, reversible inhibition
Sequence (P10635 whole entry): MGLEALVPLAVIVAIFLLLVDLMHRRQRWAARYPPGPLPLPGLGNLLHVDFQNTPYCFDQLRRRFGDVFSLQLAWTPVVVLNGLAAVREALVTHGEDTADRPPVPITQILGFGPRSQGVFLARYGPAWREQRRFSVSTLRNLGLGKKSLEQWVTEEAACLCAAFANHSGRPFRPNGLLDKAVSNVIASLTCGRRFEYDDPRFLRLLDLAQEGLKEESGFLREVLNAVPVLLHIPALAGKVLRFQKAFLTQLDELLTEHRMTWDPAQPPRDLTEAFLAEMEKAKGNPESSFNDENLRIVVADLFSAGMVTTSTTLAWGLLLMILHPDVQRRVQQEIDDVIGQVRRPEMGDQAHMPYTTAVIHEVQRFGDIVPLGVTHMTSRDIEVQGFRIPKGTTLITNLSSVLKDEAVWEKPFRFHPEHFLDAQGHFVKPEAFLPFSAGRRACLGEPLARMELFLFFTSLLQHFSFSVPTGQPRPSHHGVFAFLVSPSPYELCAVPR
pIC50: −log10 of the molar value.

# smiles str, readout relation, pIC50
records = [
    ("COc1cc2c(c(OC)c1OC)-c1c(cc(OC)c(OC)c1OC)C[C@](C)(O)[C@@H](C)C2", "=", 4.40),
    ("COc1c2c(cc3c1-c1c(cc4c(c1OC)OCO4)C[C@H](C)[C@H](C)C3)OCO2", "=", 4.69),
    ("COc1cc2c(c(OC)c1OC)-c1c(cc3c(c1OC)OCO3)C[C@H](C)[C@H](C)C2", "=", 4.38),
    ("COc1cc2c(c(OC)c1OC)-c1c(cc3c(c1OC)OCO3)C[C@H](C)[C@](C)(O)[C@H]2OC(=O)c1ccccc1", "<", 4.30),
]

====

molecular target: CYP3A (Homo sapiens, UniProt P08684); experiment: CYP3A inhibition in HLMs (midazolam, nifedipine, testosterone); details: pooled human liver microsomes, pH 7.4, IC50, CYP3A activity (across probe substrates), HLMs, reversible inhibition, probe substrate not singled out;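 also: pooled HLMs at 0.25 mg/mL in phosphate buffer, inhibitor across 0–50 µM, 10 min reaction at 37 °C after preincubation, probe metabolite quantified by LC-MS/MS, triplicate incubations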
Sequence (P08684 2-503): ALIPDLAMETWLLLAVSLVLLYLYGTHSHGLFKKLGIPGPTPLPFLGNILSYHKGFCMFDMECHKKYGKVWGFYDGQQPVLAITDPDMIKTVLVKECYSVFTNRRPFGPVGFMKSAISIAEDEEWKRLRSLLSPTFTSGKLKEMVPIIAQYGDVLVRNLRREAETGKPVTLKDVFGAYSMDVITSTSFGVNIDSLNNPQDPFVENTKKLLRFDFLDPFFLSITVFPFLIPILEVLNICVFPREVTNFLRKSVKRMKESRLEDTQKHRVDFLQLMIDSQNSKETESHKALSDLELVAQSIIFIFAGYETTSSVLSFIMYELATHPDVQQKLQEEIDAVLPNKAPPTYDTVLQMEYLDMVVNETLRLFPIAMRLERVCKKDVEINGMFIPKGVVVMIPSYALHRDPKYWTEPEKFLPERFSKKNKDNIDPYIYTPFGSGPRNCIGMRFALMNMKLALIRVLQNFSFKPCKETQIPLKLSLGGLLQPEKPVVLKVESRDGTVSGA

# smiles str, IC50 at 10 min
rows = [
    ("COc1cc2c(c(OC)c1OC)-c1c(cc(OC)c(OC)c1OC)C[C@](C)(O)[C@@H](C)C2", "≤ 16000 nM"),
    ("COc1cc2c(c(OC)c1OC)-c1c(cc3c(c1OC)OCO3)C[C@H](C)[C@](C)(O)[C@H]2OC(=O)c1ccccc1", "190 to 300 nM"),
    ("COc1cc2c(c(OC)c1OC)-c1c(cc3c(c1OC)OCO3)C[C@H](C)[C@H](C)C2", "1300 to 4500 nM"),
]

====

Molecular target: CYP2C8 (Homo sapiens)
Construct: pooled HLMs (0.25 mg/mL); tissue XenoTech H2630; host or cells: pooled human liver microsomes, mixed gender
Sequence (P10632 1-490): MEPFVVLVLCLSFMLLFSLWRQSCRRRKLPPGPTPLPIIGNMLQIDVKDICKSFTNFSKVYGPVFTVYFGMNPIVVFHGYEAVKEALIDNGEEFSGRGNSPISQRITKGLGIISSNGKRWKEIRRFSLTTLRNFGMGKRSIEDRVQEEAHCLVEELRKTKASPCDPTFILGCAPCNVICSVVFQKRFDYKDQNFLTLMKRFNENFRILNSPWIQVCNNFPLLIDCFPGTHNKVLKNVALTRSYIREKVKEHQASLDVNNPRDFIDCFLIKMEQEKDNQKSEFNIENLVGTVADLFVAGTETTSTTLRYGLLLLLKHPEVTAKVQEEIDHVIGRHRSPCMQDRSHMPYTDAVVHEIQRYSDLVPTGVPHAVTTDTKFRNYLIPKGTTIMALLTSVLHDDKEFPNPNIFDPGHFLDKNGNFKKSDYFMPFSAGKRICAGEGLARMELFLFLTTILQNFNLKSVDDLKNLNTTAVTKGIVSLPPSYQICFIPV
Assay: CYP2C8 inhibition in HLMs (amodiaquine)
Format: in vitro ADME
Conditions: 30 min pre-incubation with NADPH generating system, read-out: IC50 TDI, CYP2C8

# compound, system tested, display unit, readout relation, IC50
rows = [
    ("COc1cc2c(c(OC)c1OC)-c1c(cc3c(c1OC)OCO3)C[C@H](C)[C@H](C)C2 [Gomisin N, gomisin N]", "CYP2C8 (Homo sapiens)", "µM", "=", 9.9),
    ("COc1c2c(cc3c1-c1c(cc4c(c1OC)OCO4)C[C@H](C)[C@H](C)C3)OCO2 [Wuweizisu C, wuweizisu C]", "CYP2C8 (Homo sapiens)", "µM", "=", 14.6),
    ("COc1cc2c(c(OC)c1OC)-c1c(cc(OC)c(OC)c1OC)C[C@](C)(O)[C@@H](C)C2 [Schisandrin, schisandrin]", "CYP2C8 (Homo sapiens)", "µM", ">", 50),
    ("COc1cc2c(c(OC)c1OC)-c1c(cc3c(c1OC)OCO3)C[C@H](C)[C@](C)(O)[C@H]2OC(=O)c1ccccc1 [Gomisin C, gomisin C]", "CYP2C8 (Homo sapiens)", "µM", "=", 5.8),
]
